# systemUnderTest: ABL1 (Homo sapiens, UniProt P00519)
# Construct: purchased Carna Biosciences
# Sequence (P00519 whole entry): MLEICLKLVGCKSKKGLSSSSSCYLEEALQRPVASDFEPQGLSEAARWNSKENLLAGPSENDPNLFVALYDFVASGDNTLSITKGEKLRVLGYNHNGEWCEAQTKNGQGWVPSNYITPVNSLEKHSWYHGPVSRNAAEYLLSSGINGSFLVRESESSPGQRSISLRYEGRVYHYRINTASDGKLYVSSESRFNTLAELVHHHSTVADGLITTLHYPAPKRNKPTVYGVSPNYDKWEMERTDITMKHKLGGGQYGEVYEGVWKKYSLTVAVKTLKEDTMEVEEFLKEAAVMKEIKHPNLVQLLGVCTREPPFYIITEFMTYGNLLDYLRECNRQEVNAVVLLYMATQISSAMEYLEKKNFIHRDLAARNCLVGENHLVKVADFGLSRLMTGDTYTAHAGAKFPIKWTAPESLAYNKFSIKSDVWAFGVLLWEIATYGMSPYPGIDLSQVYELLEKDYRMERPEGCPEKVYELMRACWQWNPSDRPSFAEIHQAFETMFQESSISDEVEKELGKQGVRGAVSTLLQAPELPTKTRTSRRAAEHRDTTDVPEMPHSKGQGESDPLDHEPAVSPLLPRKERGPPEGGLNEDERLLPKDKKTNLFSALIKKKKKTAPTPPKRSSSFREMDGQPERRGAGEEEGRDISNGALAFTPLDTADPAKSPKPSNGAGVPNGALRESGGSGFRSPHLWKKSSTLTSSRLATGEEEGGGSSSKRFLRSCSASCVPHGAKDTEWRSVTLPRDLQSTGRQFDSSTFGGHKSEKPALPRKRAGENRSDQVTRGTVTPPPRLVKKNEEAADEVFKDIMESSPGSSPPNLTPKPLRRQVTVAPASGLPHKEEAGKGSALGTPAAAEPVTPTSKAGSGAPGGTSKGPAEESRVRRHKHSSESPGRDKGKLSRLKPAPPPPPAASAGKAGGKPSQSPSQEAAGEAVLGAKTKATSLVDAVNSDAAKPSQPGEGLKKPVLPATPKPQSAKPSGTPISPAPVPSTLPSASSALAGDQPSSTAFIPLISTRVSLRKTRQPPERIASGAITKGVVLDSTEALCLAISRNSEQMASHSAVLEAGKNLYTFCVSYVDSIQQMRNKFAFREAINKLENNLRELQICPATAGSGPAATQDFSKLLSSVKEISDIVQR
# assayExplanation: Luminescence-based ABL kinase assay (ADP-Glo, 300 μM ATP)
# Format: biochemical
# Protocol: Kinase activity of ABL1 was measured using the ADP-Glo system (Promega), which measures formation of ADP using a luminescence-based method. Compounds were serially diluted in DMSO. […] During this step, ADP was converted to ATP, a substrate for luciferase, to produce luminescence signal. Luminescence was measured on an Envision plate reader (Perkin Elmer). Luminescence signal positively correlates with kinase activity. […] IC50 values were calculated using the XLFit software.
experimentalReadout: IC50 (nM)
Report as a plain number; the unit nM is understood.

Ask | Note IC50 for the compound shown: COc1nc2[nH]ccc2cc1-c1c[nH]c2nc(NC(=O)[C@@H]3C[C@@H]3F)ccc12 [Compound 93]
Reply | 5.3

Ask | Note IC50 for the compound shown: COc1ncccc1-c1c[nH]c2nc(NC(=O)C3CC3)ccc12 [Compound 14]
Reply | 91.2

Ask | Note IC50 for the compound shown: COc1ccccc1-c1c[nH]c2nc(NC(=O)NCCC3CCN(C4COC4)CC3)ccc12 [Compound 110]
Reply | 74.8

Ask | Note IC50 for the compound shown: COc1nc2cn[nH]c2cc1-c1c[nH]c2nc(NC(=O)C3CC3)ccc12 [Compound 60]
Reply | 218

Ask | Note IC50 for the compound shown: COc1ccccc1-c1c[nH]c2nc(NC(=O)[C@H]3C[C@H]3CO)ccc12 [Compound 91]
Reply | 166

###

Record form. Attribute: IC50. Fill in for each entry.
# systemUnderTest: ABL1 (Homo sapiens, UniProt P00519)
# Construct: purchased Carna Biosciences
# assayExplanation: Luminescence-based ABL kinase assay (ADP-Glo, 300 μM ATP)
# Format: biochemical
Report as a plain number; the unit nM is understood.

Ask | Note IC50 for the compound shown: COc1cc2ncsc2cc1-c1c[nH]c2nc(NC(=O)NCCN3CCNCC3)ccc12 [Compound 139, bis(formic acid)]
Reply | 18.6

Ask | Note IC50 for the compound shown: CNCCCNC(=O)Nc1ccc2c(-c3c(OC)cccc3OC)c[nH]c2n1 [Compound 130]
Reply | 67

Ask | Note IC50 for the compound shown: COc1cccc(F)c1-c1n[nH]c2nc(NC(=O)[C@@H]3C[C@@H]3F)ccc12 [Compound 66]
Reply | 91.5

Ask | Note IC50 for the compound shown: COc1cc2sncc2cc1-c1c[nH]c2nc(NC(=O)[C@@H]3C[C@@H]3F)ccc12 [Compound 84]
Reply | 37

###

# systemUnderTest: ABL1 (Homo sapiens, UniProt P00519)
# Construct: purchased Carna Biosciences
# assayExplanation: Luminescence-based ABL kinase assay (ADP-Glo, 300 μM ATP)
# Type: biochemical
experimentalReadout: IC50 (nM)
Report as a plain number; the unit nM is understood.

Ask | Note IC50 for the molecule shown: COc1ccc(F)cc1-c1n[nH]c2nc(NC(=O)NCCN3CCN(C)CC3)ccc12 [Compound 79]
Reply | 143

Ask | Note IC50 for the molecule shown: COc1cc2[nH]cnc2cc1-c1c[nH]c2nc(NC(=O)[C@H]3C[C@H]3F)ccc12 [Compound 52]
Reply | 8.95

Ask | Note IC50 for the molecule shown: O=C(Nc1ccc2c(-c3ccc4nccn4c3)c[nH]c2n1)C1CC1 [Compound 56]
Reply | 30.3

Ask | Note IC50 for the molecule shown: COc1c(F)cc(F)c(OC)c1-c1c[nH]c2nc(NC(=O)[C@@H]3C[C@@H]3F)ccc12 [Compound 120]
Reply | 65.5

Ask | Note IC50 for the molecule shown: COc1cccc(OC)c1-c1c[nH]c2nc(NC(=O)C3CC3CCN(C)C)ccc12 (single isomer, unassigned) [Example S205, Enantiomer 1]
Reply | 10.6

Ask | Note IC50 for the molecule shown: COc1nc2[nH]ccc2cc1-c1c[nH]c2nc(NC(=O)[C@H]3C[C@@H]3F)ccc12 [Compound 141]
Reply | 45.5

Ask | Note IC50 for the molecule shown: CCOc1ncccc1-c1c[nH]c2nc(NC(=O)[C@@H]3C[C@@H]3F)ccc12 [Compound 62]
Reply | 20.8

Ask | Note IC50 for the molecule shown: COc1nccc(C)c1-c1c[nH]c2nc(NC(=O)[C@@H]3C[C@@H]3F)ccc12 [Compound 113]
Reply | 20.9

Ask | Note IC50 for the molecule shown: COc1ccc(F)c(OC)c1-c1c[nH]c2nc(NC(=O)[C@@H]3C[C@@H]3F)ccc12 [Compound 119]
Reply | 4.67

Ask | Note IC50 for the molecule shown: O=C(Nc1ccc2c(-c3cccnc3OCC3CC3)c[nH]c2n1)C1CC1F (single isomer, unassigned) [Example S148, Enantiomer 1]
Reply | 408

Ask | Note IC50 for the molecule shown: COc1cc2cn[nH]c2cc1-c1c[nH]c2nc(NC(=O)[C@@H]3C[C@@H]3F)ccc12 [Compound 58]
Reply | 2.92

Ask | Note IC50 for the molecule shown: COc1cc2[nH]ncc2cc1-c1c[nH]c2nc(NC(=O)[C@H]3C[C@H]3F)ccc12 [Compound 53]
Reply | 6.92

Ask | Note IC50 for the molecule shown: COc1ccc(F)cc1-c1n[nH]c2nc(NC(=O)[C@@H]3C[C@@H]3F)ccc12 [Compound 98]
Reply | 16.4

Ask | Note IC50 for the molecule shown: COc1cc2ncnn2cc1-c1c[nH]c2nc(NC(=O)[C@@H]3C[C@@H]3F)ccc12 [Compound 111]
Reply | 14.3

Ask | Note IC50 for the molecule shown: O=C(Nc1ccc2c(-c3ccc4cc[nH]c4c3)c[nH]c2n1)C1CC1 [Compound 20]
Reply | 110
